biological target: human PRMT6 (Homo sapiens, UniProt Q96LA8); construct: Flag-PRMT6-His; made in house; host or cells: HEK 293F cells (BacMam baculovirus); assay: PRMT6 Biochemical Assay (3H-SAM Flashplate, peptide substrate); details: Biochemical IC50 PRMT6, single experiment or average of multiple experiments
Sequence (Q96LA8 with tags, fused parts or gaps): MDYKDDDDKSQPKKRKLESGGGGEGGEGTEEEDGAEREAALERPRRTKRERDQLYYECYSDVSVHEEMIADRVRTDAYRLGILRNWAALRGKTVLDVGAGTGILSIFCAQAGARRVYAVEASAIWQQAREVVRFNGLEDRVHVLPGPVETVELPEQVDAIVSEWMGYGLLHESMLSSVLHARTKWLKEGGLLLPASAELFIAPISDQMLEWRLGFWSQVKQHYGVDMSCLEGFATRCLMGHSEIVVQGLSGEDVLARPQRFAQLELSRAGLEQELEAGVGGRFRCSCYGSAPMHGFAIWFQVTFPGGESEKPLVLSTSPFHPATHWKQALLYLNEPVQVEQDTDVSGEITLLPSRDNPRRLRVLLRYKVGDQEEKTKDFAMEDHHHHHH
# note: exactly 30 nM is not below, so it is 0; use 1 for IC50 strictly under it

# count of solved cases: 5
compound="COc1cc(F)ccc1-c1n[nH]cc1CN(C)CCN [Compound 151]" system_name="human PRMT6 (Homo sapiens, UniProt Q96LA8)" class=0
compound="CC(C)Oc1ccc(-c2c(CN(C)CCN)cnn2C)cc1 [Compound 177]" system_name="human PRMT6 (Homo sapiens, UniProt Q96LA8)" class=0
compound="CNCCN(C)Cc1c[nH]nc1-c1ccc(Oc2cccc(C#N)c2)cc1 [Compound 261]" system_name="human PRMT6 (Homo sapiens, UniProt Q96LA8)" class=1
compound="CN(CCN)Cc1c[nH]nc1-c1cc(C#N)ccc1Cl [Compound 147]" system_name="human PRMT6 (Homo sapiens, UniProt Q96LA8)" class=0
compound="CN(CCN)Cc1c[nH]nc1-c1ccc(OC2CC2)cc1 [Compound 114]" system_name="human PRMT6 (Homo sapiens, UniProt Q96LA8)" class=1

# TODO verify IC50 < 30 nM strictly for this compound: CCCc1ccc(-c2n[nH]cc2CN(C)CCNC)cc1 [Compound 20]
1

# TODO verify IC50 < 30 nM strictly for this compound: CNCCN(C)Cc1c[nH]nc1-c1ccc(OCC2CC2)c(F)c1 [Compound 298]
1

# TODO verify IC50 < 30 nM strictly for this compound: CNCCN(C)Cc1c[nH]nc1-c1ccc(OC2COC2)cc1 [Compound 283]
1

# TODO verify IC50 < 30 nM strictly for this compound: CC(C)c1ccc(-c2c[nH]nc2CN(C)CCN)cc1 [Compound 101]
0

# TODO verify IC50 < 30 nM strictly for this compound: CC(C)Oc1ccc(-c2c[nH]nc2CN(C)CCN)cc1F [Compound 144]
0

====

target: human PRMT1 (Homo sapiens); construct: GST-tagged PRMT1; made in house; host or cells: High Five insect cells (baculovirus); test: PRMT1 Biochemical Assay (3H-SAM Flashplate, peptide substrate); conditions: single experiment or average of multiple experiments
Sequence (Q99873 with tags, fused parts or gaps): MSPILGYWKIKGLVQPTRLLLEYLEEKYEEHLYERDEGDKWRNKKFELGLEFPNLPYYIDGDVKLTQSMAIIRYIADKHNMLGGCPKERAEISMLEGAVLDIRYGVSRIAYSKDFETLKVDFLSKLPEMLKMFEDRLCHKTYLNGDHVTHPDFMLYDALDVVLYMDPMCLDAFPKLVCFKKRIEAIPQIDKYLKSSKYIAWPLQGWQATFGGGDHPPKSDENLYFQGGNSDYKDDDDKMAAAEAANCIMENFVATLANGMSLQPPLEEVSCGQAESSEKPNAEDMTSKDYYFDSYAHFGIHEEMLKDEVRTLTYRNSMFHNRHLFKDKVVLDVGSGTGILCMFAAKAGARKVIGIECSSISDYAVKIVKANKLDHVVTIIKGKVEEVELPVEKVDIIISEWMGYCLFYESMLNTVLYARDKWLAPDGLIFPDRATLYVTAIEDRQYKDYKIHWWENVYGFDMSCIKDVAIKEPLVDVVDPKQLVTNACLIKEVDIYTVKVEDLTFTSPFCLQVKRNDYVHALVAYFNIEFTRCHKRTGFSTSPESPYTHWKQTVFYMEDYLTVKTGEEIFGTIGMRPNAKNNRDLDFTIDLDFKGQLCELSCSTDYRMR
metric: pIC50
Schema: pIC50 number; meaning minus log10 of the concentration expressed in molar units.

compound="CNCCN(C)Cc1c[nH]nc1-c1ccc(Oc2cccc(F)c2)cc1 [Compound 231]" value_measured=8.39
compound="C=CCn1ncc(CN(C)CCNC)c1-c1ccc(OC(C)C)cc1 [Compound 219]" value_measured=7.73
compound="CNCCN(C)Cc1c[nH]nc1-c1ccc(N(C)C(C)C)cc1 [Compound 300]" value_measured=7.55

CNC(=O)c1cc(-c2n[nH]cc2CN(C)CCN)ccc1Oc1ccccc1 [Compound 227] has a reported pIC50 of 7.61

CNCCN(C)Cc1c[nH]nc1-c1ccc(OC2COC2)cc1 [Compound 283] has a reported pIC50 of 8.18

CNCCN(C)Cc1c[nH]nc1-c1ccc(OCCCOC)cc1 [Compound 209] has a reported pIC50 of 8.28

CNCCN(C)Cc1c[nH]nc1-c1ccc(Oc2ccccc2)c(C(=O)N(C)C)c1 [Compound 233] has a reported pIC50 of 7.53

COc1ccc(-c2n[nH]cc2CN(C)CCN)cc1F [Compound 134] has a reported pIC50 of 7.97

COCCOc1ccc(-c2n[nH]cc2CN(C)CCN)cc1 [Compound 167] has a reported pIC50 of 8.03
